Target: T1, Sec8-His (section 8 (Sec8), an antigenic region of CSP-1, tagged with a polyhistidine (His) tag)
T1 construct: also called Sec8-His antigen
T1 chain: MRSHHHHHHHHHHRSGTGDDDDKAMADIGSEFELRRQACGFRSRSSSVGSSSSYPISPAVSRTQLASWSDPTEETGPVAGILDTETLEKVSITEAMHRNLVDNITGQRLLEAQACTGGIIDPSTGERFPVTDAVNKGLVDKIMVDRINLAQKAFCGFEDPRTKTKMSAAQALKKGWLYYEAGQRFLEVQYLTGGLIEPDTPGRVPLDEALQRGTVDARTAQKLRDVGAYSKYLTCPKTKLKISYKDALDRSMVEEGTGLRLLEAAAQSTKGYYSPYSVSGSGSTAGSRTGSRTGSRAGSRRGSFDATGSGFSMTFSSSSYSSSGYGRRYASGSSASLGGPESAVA
Experiment: BLI (Octet), single shot: antibody on anti-human IgG tips, 24 nM Sec8-His
Measurement Type: binding result

- humanized anti-CSP-1 antibody, Antibody Number 42 (Table 1) (antibody, human IgG1, V domains shown, also called Antibody 42) VH: QIQLVQSGSELKKPGASVKVSCKASGYTFTDYSMHWVRQAPGQGLEWMGWINTETGEPTYAQGFTGRFVFSLDTSVSTAYLQISSLKAEDTAVYFCAPGGFAYWGQGTLVTVSS VL: DIVMTQSPLSLPVTPGEPASISCRSSKSLLHSNGNTYLYWFLQKPGQSPQLLIYRMSNLASGVPDRFSGSGSGTDFTLKISRVEAEDVGVYYCMQHLEYPLTFGAGTKLELK: binds
- humanized anti-CSP-1 antibody, Antibody Number 35 (Table 1) (antibody, human IgG1, V domains shown, also called Antibody 35) VH: EVQLVESGGEVVKPGASLKLSCKASGFTFSRYGMSWVRQAPGQRLEWVATISIGGTYTYYPDSMKGRFTITRDNSTNTLYLEMSSLRSEDTAMYYCARRGYGNYSYYGMDYWGQGTLVTVSS VL: DIVMTQSALSNPVTLGQSASISCRSSKSLLHSNGITYLYWYLQKPGQSPQLLIYQMSNRASGVPDRFSSSGSGTDFTLKISRVEAEDVGVYYCAQNLELPLTFGQGTKLEIK: binds
- humanized anti-CSP-1 antibody, Antibody Number 25 (Table 1) (antibody, human IgG1, V domains shown, also called Antibody 25) VH: EVQLVESGGDLVKPGGSLKLSCAASGFTFSRYGMSWVRQTPDKRLEWVATISIGGTYTYYPDSMKGRFTISRDNAKNTLYLQMSSLKSEDTAMYYCARRGYGNYSYYGMDYWGQGTSVTVSS VL: DIVMTQAAFSNPVTLGTSASISCRSSKSLLHSQGITYLYWYLQKPGQSPQLLIYQMSNLASGVPDRFSSSGSGTDFTLRISRVEAEDVGVYYCAQNLELPLTFGAGTKLELK: binds

Each recorded value in this set is attributed to patent US20250011418A1.
